system: broadleaf signalgrass (Brachiaria decumbens); test: Test B pre-/postemergence; assay type: in vivo; conditions: Rate 250 g/ha, Postemergence

entry.smiles: Cc1cnc(-n2cnc(C(F)(F)F)n2)nc1Cc1cccc(C(F)(F)F)c1
Plant response rating, B. signalgrass: 6

entry.smiles: Cc1cnc(-c2ccc(Cl)c(Cl)c2)nc1Cc1cccc(C#N)c1
Plant response rating, B. signalgrass: 1

entry.smiles: COc1cnc(-n2ccc(C(F)(F)F)n2)nc1C(=O)c1cccc(C(F)(F)F)c1
Plant response rating, B. signalgrass: 3

entry.smiles: Cc1cnc(-c2ccc(F)cc2F)nc1Cc1cccc(C#N)c1
Plant response rating, B. signalgrass: 1

entry.smiles: Cc1cnc(-n2ccc(C(F)(F)C(F)(F)F)n2)nc1C(=O)c1cccc(C(F)(F)F)c1
Plant response rating, B. signalgrass: 3

entry.smiles: CCc1cnc(-c2ccc(C(F)(F)F)cc2)nc1Cc1cccc(C(F)(F)F)c1
Plant response rating, B. signalgrass: 7

entry.smiles: Cc1cnc(-c2ccc(C#N)cc2)nc1Cc1cccc(C(F)(F)F)c1
Plant response rating, B. signalgrass: 2

entry.smiles: Cc1cnc(-c2ccc(C(F)(F)F)cc2)nc1Cn1ccc(C#N)n1
Plant response rating, B. signalgrass: 2

entry.smiles: N#Cc1ccc(-c2nccc(C(=O)c3cccc(C(F)(F)F)c3)n2)cc1
Plant response rating, B. signalgrass: 1

Taken from patent US6525001B1.
